- Test system: H1975
- PROTOCOL_NOTES: CCK-8 proliferation, NCI-H1975 (H1975)
- Type: cell-based, Human
- CONDITION: Homo sapiens, NCI-H1975; CCK-8; 96 hours; read-out: Inhibitory activity (IC50) on tumor cell proliferation, H1975
QUANTITY: IC50

Example results:
// returns reported IC50 for input O=C1CCN(c2ccc(CN3CCN(C4CCN(c5ccc(Nc6ncc7nc(Nc8ccccc8)n(C8CCCC8)c7n6)cc5)CC4)CC3)nc2)C(=O)N1
100 to 500 nM

Same question, CN(Cc1ccc(C2CCC(=O)NC2=O)cc1)C1CCN(c2ccc(-c3cc(F)c4c(c3)C(=O)N(C(C(=O)Nc3nccs3)c3ncn5c3CCC5)C4)cc2)CC1 (stereo not drawn) this time
1 to 10 nM

More entries:
// returns reported IC50 for input CN(Cc1cc(C2CCC(=O)NC2=O)cnc1F)C1CCN(c2ccc(-c3cc(F)c4c(c3)C(=O)N(C(C(=O)Nc3nccs3)c3ncn5c3CCC5)C4)cc2)CC1 (stereo not drawn)
1 to 10 nM

Same question, O=C1CCN(c2ccc(CN3CCN(c4ccc(-c5cc(F)c6c(c5)C(=O)N(C(C(=O)Nc5nccs5)c5ncn7c5CCC7)C6)cc4)CC3)cc2)C(=O)N1 (stereo not drawn) this time
1 to 10 nM

Same question, O=C1CCC(c2cnc(F)c(CN3CCN(c4ccc(-c5cc(F)c6c(c5)C(=O)N(C(C(=O)Nc5nccs5)c5ncn7c5CCC7)C6)cc4)CC3)c2)C(=O)N1 (stereo not drawn) this time
1 to 10 nM

Same question, CNC(=O)c1ccc(Nc2ncc(C(F)(F)F)c(NCc3nccnc3N(C)S(C)(=O)=O)n2)cc1 [Defactinib, reference compound] this time
1000 to 5000 nM
